experiment: Solubility testing of peptides at different pH; assay type: physicochemical; conditions: 50 mM phosphate buffer pH 9.0; target concentration 1 mg/ml; 2 hours agitation; read-out: Solubility Buffer pH 9.0
Positions of bridges follow the written chain, without caps; N, C: chain ends. Non-standard residues stand in square brackets, D forms with d. Residues, ends and D or L forms follow the SMILES beside them. *: point of attachment. Trp(7-Me) = Cc1cccc2c(C[C@H](N)C(=O)O)c[nH]c12; 2Nal = N[C@@H](Cc1ccc2ccccc2c1)C(=O)O; 3Pal = N[C@@H](Cc1cccnc1)C(=O)O; Thp = NC1(C(=O)O)CCOCC1; Me2NCH2CH2 = CN(C)CC*; Aib = CC(C)(N)C(=O)O; Ava = NCCCCC(=O)O; Sar = CNCC(=O)O
quantity.kind: solubility at 2 h (µg/mL)
Record the value in µg/mL, omitting the unit from your answer.

compound: CC(=O)NCCCC[C@@H]1NC(=O)[C@H](Cc2c[nH]c3c(C)cccc23)NC(=O)[C@H]([C@@H](C)O)NC(=O)[C@H](CC(N)=O)NC(=O)[C@@H]2CSSC[C@H](NC1=O)C(=O)N[C@@H](Cc1ccc(OCCN(C)C)cc1)C(=O)N[C@@H](Cc1ccc3ccccc3c1)C(=O)NC(C)(C)C(=O)N[C@H](C(=O)N[C@@H](CC(N)=O)C(=O)N[C@@H](Cc1c[nH]cn1)C(=O)N(C)CC(N)=O)CCC(=O)NCCCCC(=O)N2 [compound 45] ([Ava]CNT[Trp(7-Me)]K(Ac)CY(Me2NCH2CH2)[2Nal][Aib]ENH[Sar]-NH2; disulfide 2-7; lactam N-11)
measurement: 350

Consider the additional compound presented here.
// Input: Cc1cccc2c(C[C@@H]3NC(=O)[C@H]([C@@H](C)O)NC(=O)[C@H](CC(N)=O)NC(=O)[C@@H]4CSSC[C@H](NC(=O)[C@H](CC(C)C)NC3=O)C(=O)N[C@@H](Cc3ccc(OCCN(C)C)cc3)C(=O)N[C@@H](Cc3ccc5ccccc5c3)C(=O)NC3(CCOCC3)C(=O)N[C@H](C(=O)N[C@@H](CC(N)=O)C(=O)N[C@@H](Cc3cccnc3)C(=O)N(C)CC(N)=O)CCC(=O)NCCCCC(=O)N4)c[nH]c12 [compound 24] ([Ava]CNT[Trp(7-Me)]LCY(Me2NCH2CH2)[2Nal][Thp]EN[3Pal][Sar]-NH2; disulfide 2-7; lactam N-11) . Output its solubility at 2 h only. 300

====

Listing of entries alongside the reported solubility at 2 h.
Experiment: Solubility testing of peptides at different pH
Format: physicochemical
Conditions: 50 mM phosphate buffer pH 6.5; target concentration 1 mg/ml; 2 hours agitation; read-out: Solubility Buffer pH 6.5
Procedure: Prior to the solubility measurement of a synthesized peptide batch, its purity was determined through UPLC/MS (methods B-G). For solubility testing the target concentration was 1 mg pure compound/ml. […] The solubility was determined by the comparison of the UV peak area of 2 μL-injections of a buffered sample diluted 1:5 with a standard curve of a dimethyl sulfoxide reference sample of the diluted in dimethyl sulfoxide with known concentration. […]
Positions of bridges follow the written chain, without caps; N, C: chain ends. Non-standard residues stand in square brackets, D forms with d. Residues, ends and D or L forms follow the SMILES beside them. *: point of attachment. Trp(7-Me) = Cc1cccc2c(C[C@H](N)C(=O)O)c[nH]c12; 2Nal = N[C@@H](Cc1ccc2ccccc2c1)C(=O)O; αMeL = CC(C)C[C@](C)(N)C(=O)O; Thp = NC1(C(=O)O)CCOCC1; Me2NCH2CH2 = CN(C)CC*; Aib = CC(C)(N)C(=O)O; Ahx = NCCCCCC(=O)O; Ava = NCCCCC(=O)O; Sar = CNCC(=O)O

Record excerpt, results attached:
molecule: CC(C)C[C@@H](NC(=O)[C@H](CC(N)=O)NC(=O)[C@@H]1CCC(=O)NCCCCC(=O)N[C@H]2CSSC[C@H](NC(=O)[C@H](CCC(N)=O)NC(=O)[C@H](Cc3c[nH]c4ccccc34)NC(=O)[C@H]([C@@H](C)O)NC(=O)[C@H](CC(N)=O)NC2=O)C(=O)N[C@@H](Cc2ccc(OCCN(C)C)cc2)C(=O)N[C@@H](Cc2ccc3ccccc3c2)C(=O)N[C@@](C)(CC(C)C)C(=O)N1)C(N)=O [compound 10] ([Ava]CNTWQCY(Me2NCH2CH2)[2Nal][αMeL]EN[dL]-NH2; disulfide 2-7; lactam N-11)
measurement: 70 µg/mL
--
molecule: CC(=O)NCCCC[C@@H]1NC(=O)[C@H](Cc2c[nH]c3c(C)cccc23)NC(=O)[C@H]([C@@H](C)O)NC(=O)[C@H](CC(N)=O)NC(=O)[C@@H]2CSSC[C@H](NC1=O)C(=O)N[C@@H](Cc1ccc(OCCN(C)C)cc1)C(=O)N[C@@H](Cc1ccc3ccccc3c1)C(=O)NC1(CCOCC1)C(=O)N[C@H](C(=O)N[C@@H](CC(N)=O)C(=O)N[C@@H](Cc1c[nH]cn1)C(N)=O)CCC(=O)NCCCCC(=O)N2 [compound 21] ([Ava]CNT[Trp(7-Me)]K(Ac)CY(Me2NCH2CH2)[2Nal][Thp]ENH-NH2; disulfide 2-7; lactam N-11)
measurement: ≥ 1010 µg/mL

Determine from records and report solubility at 2 h for COc1ccc(C[C@@H]2NC(=O)[C@@H]3CSSC[C@H](NC(=O)CCCCCNC(=O)CC[C@@H](C(=O)N[C@@H](CC(N)=O)C(=O)N[C@@H](CC(N)=O)C(N)=O)NC(=O)C(C)(C)NC(=O)[C@H](Cc4ccc5ccccc5c4)NC2=O)C(=O)N[C@@H](CC(N)=O)C(=O)N[C@@H]([C@@H](C)O)C(=O)N[C@@H](Cc2c[nH]c4ccccc24)C(=O)N[C@@H](CCC(N)=O)C(=O)N3)cc1 [compound 2] ([Ahx]CNTWQCY(Me)[2Nal][Aib]ENN-NH2; disulfide 2-7; lactam N-11) < 50 µg/mL

Tell me solubility at 2 h reported for CC(=O)NCCCC[C@@H]1NC(=O)[C@H](Cc2c[nH]c3c(C)cccc23)NC(=O)[C@H]([C@@H](C)O)NC(=O)[C@H](CC(N)=O)NC(=O)[C@@H]2CSSC[C@H](NC1=O)C(=O)N[C@@H](Cc1ccc(OCCN(C)C)cc1)C(=O)N[C@H](Cc1ccc3ccccc3c1)C(=O)NC1(CCOCC1)C(=O)N[C@H](C(=O)N[C@@H](CC(N)=O)C(=O)N[C@@H](Cc1cccnc1)C(=O)N(C)CC(N)=O)CCC(=O)NCCCCC(=O)N2 ≥ 1030 µg/mL

Indicate its recorded solubility at 2 h; the molecule in question is CC(=O)NCCCC[C@@H]1NC(=O)[C@H](Cc2c[nH]c3c(C)cccc23)NC(=O)[C@H]([C@@H](C)O)NC(=O)[C@H](CC(N)=O)NC(=O)[C@@H]2CSSC[C@H](NC1=O)C(=O)N[C@@H](Cc1ccc(OCCN(C)C)cc1)C(=O)N[C@@H](Cc1ccc3ccccc3c1)C(=O)NC(C)(C)C(=O)N[C@H](C(=O)N[C@@H](CC(N)=O)C(=O)N[C@@H](Cc1c[nH]cn1)C(=O)N(C)CC(N)=O)CCC(=O)NCCCCC(=O)N2 [compound 45] ([Ava]CNT[Trp(7-Me)]K(Ac)CY(Me2NCH2CH2)[2Nal][Aib]ENH[Sar]-NH2; disulfide 2-7; lactam N-11) ≥ 1060 µg/mL
